Entries and their measured microsomal CLint follow.
PROTOCOL DETAILS: Metabolic stability in rat liver microsomes assessed as clearance
Assay type: ADME, Microsome
CONDITIONS: liver microsomes, read-out: CLH
Write the value in µL/min/mg as a bare number.

Worked examples, 2 compounds total:
{"columns": ["COMPOUND", "READOUT TYPE", "MEASUREMENT"],
 "data": [
  ["Cc1ccc(C/C(=N\\O)C(=O)NCc2ccc3c(c2)CN(C2CCC(=O)NC2=O)C3=O)cc1Cl (stereo not drawn)", "microsomal CLint", 122],
  ["O=C1CCC(N2Cc3cc(CNC(=O)C(F)(F)c4ccc(Cl)cc4)ccc3C2=O)C(=O)N1 (stereo not drawn)", "microsomal CLint", 27.8]
]}

Find the recorded microsomal CLint belonging to COc1cccc2c1OCC(C(=O)NCc1ccc3c(c1)CN(C1CCC(=O)NC1=O)C3=O)=C2 (stereo not drawn) and report it.
6.55

----------
PROTOCOL DETAILS: Metabolic stability in mouse liver microsomes assessed as clearance
Assay type: ADME, Microsome
CONDITIONS: read-out: CLH
READOUT TYPE: microsomal CLint (µL/min/mg)
Write the value in µL/min/mg as a bare number.

Worked examples, 2 compounds total:
{"columns": ["COMPOUND", "READOUT TYPE", "MEASUREMENT"],
 "data": [
  ["O=C1CCC(N2Cc3cc(CNC(=O)C4=Cc5cc(OC(F)(F)F)ccc5OC4)ccc3C2=O)C(=O)N1 (stereo not drawn)", "microsomal CLint", 4.95],
  ["O=C1CCC(N2Cc3cc(CNC(=O)C(F)(F)c4ccc(Cl)cc4)ccc3C2=O)C(=O)N1 (stereo not drawn)", "microsomal CLint", 4.52]
]}

Find the recorded microsomal CLint belonging to O=C1CCC(N2Cc3ccc(COC(=O)Nc4cc(OC(F)(F)F)ccc4F)cc3C2=O)C(=O)N1 (stereo not drawn) and report it.
14.9

----------
PROTOCOL DETAILS: Tmax in Sprague-Dawley rat at 10 mg/kg, po
Format: ADME, organism-based
CONDITIONS: in vivo
Entries and their measured Tmax follow.
Write the value in h as a bare number.

Worked examples, 2 compounds total:
{"columns": ["COMPOUND", "Tmax (h)"],
 "data": [
  ["O=C1CCC(N2Cc3cc(CNC(=O)C4=Cc5cccc(OC(F)(F)F)c5OC4)ccc3C2=O)C(=O)N1 (configuration not stated)", 4.67],
  ["O=C1CCC(N2Cc3cc(CNC(=O)C4=Cc5cccc(F)c5OC4)ccc3C2=O)C(=O)N1 (configuration not stated)", 1.67]
]}

Find the recorded Tmax belonging to CO/N=C(\Cc1ccc(C)c(Cl)c1)C(=O)NCc1ccc2c(c1)CN(C1CCC(=O)NC1=O)C2=O (configuration not stated) and report it.
0.42

Find the recorded Tmax belonging to O=C1CCC(N2Cc3ccc(COC(=O)Nc4cc(OC(F)(F)F)ccc4F)cc3C2=O)C(=O)N1 (configuration not stated) and report it.
3.33

Find the recorded Tmax belonging to O=C1CCC(N2Cc3cc(CNC(=O)C4=Cc5cccc(C(F)(F)F)c5OC4)ccc3C2=O)C(=O)N1 (configuration not stated) and report it.
1.5

Find the recorded Tmax belonging to COc1cccc2c1OCC(C(=O)NCc1ccc3c(c1)CN(C1CCC(=O)NC1=O)C3=O)=C2 (configuration not stated) and report it.
2.67

Find the recorded Tmax belonging to O=C1CCC(N2Cc3cc(CNC(=O)C4COc5ccccc5C4)ccc3C2=O)C(=O)N1 (configuration not stated) and report it.
0.5

----------
TARGET: hERG (KCNH2) (Homo sapiens, UniProt Q12809)
Sequence (Q12809 whole entry): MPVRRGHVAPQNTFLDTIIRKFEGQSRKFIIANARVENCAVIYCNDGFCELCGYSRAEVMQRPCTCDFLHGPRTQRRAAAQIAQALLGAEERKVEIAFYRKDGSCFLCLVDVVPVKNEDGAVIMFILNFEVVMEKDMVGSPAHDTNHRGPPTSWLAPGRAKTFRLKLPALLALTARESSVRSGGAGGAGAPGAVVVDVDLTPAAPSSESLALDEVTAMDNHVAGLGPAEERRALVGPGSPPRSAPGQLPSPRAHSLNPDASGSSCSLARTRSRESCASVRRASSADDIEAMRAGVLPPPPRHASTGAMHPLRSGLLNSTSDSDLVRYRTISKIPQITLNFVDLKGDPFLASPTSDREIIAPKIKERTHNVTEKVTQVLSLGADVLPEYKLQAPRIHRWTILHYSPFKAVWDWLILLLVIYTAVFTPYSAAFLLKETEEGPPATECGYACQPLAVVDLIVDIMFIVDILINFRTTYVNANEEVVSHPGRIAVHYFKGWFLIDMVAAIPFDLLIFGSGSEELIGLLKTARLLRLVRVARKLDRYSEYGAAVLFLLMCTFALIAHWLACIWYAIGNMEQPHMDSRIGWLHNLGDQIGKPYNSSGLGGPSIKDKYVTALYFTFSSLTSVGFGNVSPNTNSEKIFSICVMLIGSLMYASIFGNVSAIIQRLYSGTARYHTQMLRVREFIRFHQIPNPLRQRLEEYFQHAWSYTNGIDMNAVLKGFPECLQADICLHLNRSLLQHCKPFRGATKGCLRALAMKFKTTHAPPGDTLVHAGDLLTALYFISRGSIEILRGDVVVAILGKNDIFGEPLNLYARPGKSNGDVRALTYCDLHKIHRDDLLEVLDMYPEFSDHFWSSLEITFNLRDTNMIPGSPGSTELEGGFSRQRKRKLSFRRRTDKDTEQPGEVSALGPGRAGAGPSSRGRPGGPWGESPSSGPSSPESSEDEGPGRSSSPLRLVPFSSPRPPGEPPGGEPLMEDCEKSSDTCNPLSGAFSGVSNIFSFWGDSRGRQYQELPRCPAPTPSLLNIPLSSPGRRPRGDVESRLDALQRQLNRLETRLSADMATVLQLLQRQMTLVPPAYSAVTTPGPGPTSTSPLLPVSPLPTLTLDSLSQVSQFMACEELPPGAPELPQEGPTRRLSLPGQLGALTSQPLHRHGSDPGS
PROTOCOL DETAILS: Inhibition of human ERG at 1 uM relative to control
Type: toxicity
Entries and their measured inhibition at 1 µM follow.
Write the value in % as a bare number.

{"columns": ["COMPOUND", "TARGET", "inhibition at 1 µM, %"],
 "data": [
  ["O=C1CCC(N2Cc3cc(CNC(=O)C4=Cc5cc(OC(F)(F)F)ccc5OC4)ccc3C2=O)C(=O)N1 (stereo not drawn)", "hERG (KCNH2) (Homo sapiens, UniProt Q12809)", 46.8]
]}

Find the recorded inhibition at 1 µM belonging to O=C1CCC(N2Cc3ccc(COC(=O)Nc4cc(OC(F)(F)F)ccc4F)cc3C2=O)C(=O)N1 (stereo not drawn) and report it.
46.1

Find the recorded inhibition at 1 µM belonging to O=C1CCC(N2Cc3cc(CNC(=O)C(F)(F)c4ccc(Cl)cc4)ccc3C2=O)C(=O)N1 (stereo not drawn) and report it.
48.2

----------
PROTOCOL DETAILS: Tmax in Sprague-Dawley rat at 10 mg/kg, ip
Assay type: ADME, organism-based
CONDITIONS: in vivo
READOUT TYPE: Tmax

Worked examples, 2 compounds total:
{"columns": ["COMPOUND", "Tmax"],
 "data": [
  ["Cc1ccc(C/C(=N\\O)C(=O)NCc2ccc3c(c2)CN(C2CCC(=O)NC2=O)C3=O)cc1Cl (stereo not drawn)", "26.4 min"],
  ["O=C1CCC(N2Cc3cc(CNC(=O)C(F)(F)c4ccc(Cl)cc4)ccc3C2=O)C(=O)N1 (stereo not drawn)", "90 min"]
]}

For the next question, use this compound.
Find the recorded Tmax belonging to O=C1CCC(N2Cc3cc(CNC(=O)C4COc5ccccc5C4)ccc3C2=O)C(=O)N1 (stereo not drawn) and report it.
25.2 min

----------
PROTOCOL DETAILS: Metabolic stability in Beagle dog liver microsomes assessed as clearance
Format: ADME, Canis lupus familiaris, Microsome
CONDITIONS: read-out: CLH
READOUT TYPE: microsomal CLint (µL/min/mg)
Write the value in µL/min/mg as a bare number.

Worked examples, 2 molecules total:
{"columns": ["MOLECULE", "microsomal CLint (µL/min/mg)"],
 "data": [
  ["O=C1CCC(N2Cc3cc(CNC(=O)C(F)(F)c4ccc(Cl)cc4)ccc3C2=O)C(=O)N1 (stereo not drawn)", 2.42],
  ["O=C1CCC(N2Cc3cc(CNC(=O)C4=Cc5cc(OC(F)(F)F)ccc5OC4)ccc3C2=O)C(=O)N1 (stereo not drawn)", 1.5]
]}

For the next question, use this molecule.
Find the recorded microsomal CLint belonging to O=C1CCC(N2Cc3ccc(COC(=O)Nc4cc(OC(F)(F)F)ccc4F)cc3C2=O)C(=O)N1 (stereo not drawn) and report it.
1.74

----------
PROTOCOL DETAILS: Oral bioavailability in Sprague-Dawley rat at 10 mg/kg
Assay type: ADME, organism-based
CONDITIONS: in vivo
Entries and their measured bioavailability follow.
Write the value in % as a bare number.

{"columns": ["COMPOUND", "SCALE UNIT", "bioavailability"],
 "data": [
  ["O=C1CCC(N2Cc3cc(CNC(=O)C4=Cc5cccc(C(F)(F)F)c5OC4)ccc3C2=O)C(=O)N1 (centres undefined)", "%", 10.7],
  ["O=C1CCC(N2Cc3cc(CNC(=O)C4=Cc5ccccc5OC4)ccc3C2=O)C(=O)N1 (centres undefined)", "%", 19.3],
  ["COc1cccc2c1OCC(C(=O)NCc1ccc3c(c1)CN(C1CCC(=O)NC1=O)C3=O)=C2 (centres undefined)", "%", 18.6],
  ["O=C1CCC(N2Cc3ccc(COC(=O)Nc4cc(OC(F)(F)F)ccc4F)cc3C2=O)C(=O)N1 (centres undefined)", "%", 72.9],
  ["O=C1CCC(N2Cc3cc(CNC(=O)C4COc5ccccc5C4)ccc3C2=O)C(=O)N1 (centres undefined)", "%", 10.3],
  ["O=C1CCC(N2Cc3cc(CNC(=O)C4=Cc5cc(OC(F)(F)F)ccc5OC4)ccc3C2=O)C(=O)N1 (centres undefined)", "%", 22.9]
]}

Find the recorded bioavailability belonging to O=C1CCC(N2Cc3cc(CNC(=O)C4=Cc5cccc(OC(F)(F)F)c5OC4)ccc3C2=O)C(=O)N1 (centres undefined) and report it.
15.8

Find the recorded bioavailability belonging to O=C1CCC(N2Cc3cc(CNC(=O)C4=Cc5cccc(F)c5OC4)ccc3C2=O)C(=O)N1 (centres undefined) and report it.
11.5

Find the recorded bioavailability belonging to CO/N=C(\Cc1ccc(C)c(Cl)c1)C(=O)NCc1ccc2c(c1)CN(C1CCC(=O)NC1=O)C2=O (centres undefined) and report it.
27.6

----------
PROTOCOL DETAILS: Observed MRT infinity in Sprague-Dawley rat at 10 mg/kg, po
Assay type: ADME, organism-based
CONDITIONS: in vivo
Entries and their measured MRT inf follow.
Write the value in h as a bare number.

{"columns": ["COMPOUND", "SCALE UNIT", "MRT inf"],
 "data": [
  ["O=C1CCC(N2Cc3cc(CNC(=O)C4COc5ccccc5C4)ccc3C2=O)C(=O)N1 (configuration not stated)", "h", 2.38]
]}

For the next question, use this compound.
Find the recorded MRT inf belonging to CO/N=C(\Cc1ccc(C)c(Cl)c1)C(=O)NCc1ccc2c(c1)CN(C1CCC(=O)NC1=O)C2=O (configuration not stated) and report it.
1.32

Taken from ChEMBL document CHEMBL6121050.
